STUDY TARGET: catalytic subunit of murine PKA (Mus musculus, UniProt P05132)
TEST: Protein kinase A (PKA) activity inhibition, [γ-32P]ATP phosphocellulose paper assay
Listing of entries alongside the reported IC50.
VALUE KIND: IC50

• N=C(N)NCCC[C@H](NC(=O)[C@H](CCCNC(=N)N)NC(=O)[C@H](CCCNC(=N)N)NC(=O)[C@H](CCCNC(=N)N)NC(=O)[C@H](CCCNC(=N)N)NC(=O)[C@H](CCCNC(=N)N)NC(=O)CNC(=O)[C@H]1O[C@@H](n2cnc3c(N)ncnc32)[C@H](O)[C@@H]1O)C(=O)O [Inhibitor IV, AdoCGlyArg6] = 4000 nM
• N=C(N)NCCC[C@H](NC(=O)[C@H](CCCNC(=N)N)NC(=O)[C@H](CCCNC(=N)N)NC(=O)[C@H](CCCNC(=N)N)NC(=O)[C@H](CCCNC(=N)N)NC(=O)[C@H](CCCNC(=N)N)NC(=O)CCCNC(=O)[C@H]1O[C@@H](n2cnc3c(N)ncnc32)[C@H](O)[C@@H]1O)C(=O)O [Inhibitor VI, AdoC(GABA)Arg6] = 1300 nM
• N=C(N)NCCC[C@H](NC(=O)[C@H](CCCNC(=N)N)NC(=O)[C@H](CCCNC(=N)N)NC(=O)[C@H](CCCNC(=N)N)NC(=O)[C@H](CCCNC(=N)N)NC(=O)[C@H](CCCNC(=N)N)NC(=O)CCCCCNC(=O)[C@H]1O[C@@H](n2cnc3c(N)ncnc32)[C@H](O)[C@@H]1O)C(=O)O [Inhibitor VII, AdoC(Ahx)Arg6] = 120 nM
